All values here come from patent US8299048B2.

Target: UniProt:P04150
Assay: Trans-Activation Modulation of Glucocorticoid Receptor (GRAMMER), MMTV-LUC reporter, agonist mode
Format: cell-based
Parameters: endogenous in cells
Conditions: A549, A549 cells; maximum activity; read-out: Transactivation A549 Cells GRAMMER Emax
quantity_kind: Emax (%)

C[C@]12Cc3cnn(-c4ccc(F)cc4)c3C=C1CC[C@@H]2CN(CC#N)S(=O)(=O)c1ccccc1Cl [Example 50]: 15.1
C[C@]12Cc3cnn(-c4ccc(F)cc4)c3C=C1CC[C@@H]2CN(CC#N)S(=O)(=O)c1ccc(Oc2cccc(Cl)c2C#N)cc1 [Example 38]: 1.3
C[C@]12Cc3cnn(-c4ccccc4)c3C=C1CC[C@@H]2CN(CCc1ccccn1)S(=O)(=O)CC(F)(F)F [Example 138]: 78.1
COC(=O)c1ccccc1S(=O)(=O)N(CCc1ccccc1F)C[C@H]1CCC2=Cc3c(cnn3-c3ccc(F)cc3)C[C@@]21C [Example 189]: 65.3
C[C@H](O)CN(C[C@H]1CCC2=Cc3c(cnn3-c3ccc(F)cc3)C[C@@]21C)S(=O)(=O)CC(F)(F)F [Example 113]: 85.4
C[C@]12Cc3cnn(-c4ccc(F)cc4)c3C=C1CC[C@@H]2CN(CC#N)S(=O)(=O)c1cc(F)c(F)cc1F [Example 47]: 58.3
C[C@]12Cc3cnn(-c4ccc(F)cc4)c3C=C1CC[C@@H]2CN(CCO)S(=O)(=O)c1cccc(C#N)c1 [Example 68]: 10

----------
Biological target: human GR (Homo sapiens)
Sequence (P04150 whole entry): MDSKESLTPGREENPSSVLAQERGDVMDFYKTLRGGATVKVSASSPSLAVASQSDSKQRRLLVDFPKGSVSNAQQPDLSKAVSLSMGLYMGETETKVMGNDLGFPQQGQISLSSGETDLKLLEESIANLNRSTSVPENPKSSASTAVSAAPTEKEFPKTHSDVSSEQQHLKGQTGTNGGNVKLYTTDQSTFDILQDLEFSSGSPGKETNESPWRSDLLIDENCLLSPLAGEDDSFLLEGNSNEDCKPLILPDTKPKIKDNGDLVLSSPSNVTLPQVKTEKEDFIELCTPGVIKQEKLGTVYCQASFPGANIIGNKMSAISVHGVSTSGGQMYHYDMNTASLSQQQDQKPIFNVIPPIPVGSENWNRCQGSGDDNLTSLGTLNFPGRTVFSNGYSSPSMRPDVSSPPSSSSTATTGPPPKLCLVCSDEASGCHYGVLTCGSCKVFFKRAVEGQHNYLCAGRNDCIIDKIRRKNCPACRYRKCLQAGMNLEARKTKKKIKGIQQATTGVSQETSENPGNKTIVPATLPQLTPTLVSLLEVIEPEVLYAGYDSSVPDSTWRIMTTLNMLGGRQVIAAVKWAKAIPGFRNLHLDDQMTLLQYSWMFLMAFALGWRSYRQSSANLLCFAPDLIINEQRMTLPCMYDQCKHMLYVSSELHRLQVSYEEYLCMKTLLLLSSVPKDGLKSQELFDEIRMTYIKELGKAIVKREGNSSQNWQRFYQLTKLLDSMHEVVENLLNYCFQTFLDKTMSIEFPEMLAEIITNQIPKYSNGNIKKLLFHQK
Assay: Transrepression Assay (GITAR), TNFα-β-lactamase reporter in U937 cells
Format: cell-based
Design: U937 cells contain an endogenous glucocorticoid receptor (GR); endogenous in cells; host or cells: U937 cells stably transfected with the TNF-alpha promoter/beta-lactamase reporter
Details: U937 cells; inflection point; read-out: Transrepression U937 Cells GITAR IP
quantity_kind: EC50 (nM)

C[C@]12Cc3cnn(-c4ccccc4)c3C=C1CC[C@@H]2CN(CCc1ccccc1O)S(=O)(=O)Cc1cccnc1 [Example 141]: 400
CCS(=O)(=O)N(CCOC)C[C@H]1CCC2=Cc3c(cnn3-c3ccc(F)cc3)C[C@@]21C [Example 171]: 410
COC(=O)c1ccccc1S(=O)(=O)N(C[C@H]1CCC2=Cc3c(cnn3-c3ccc(F)cc3)C[C@@]21C)C[C@H](C)O [Example 187]: 392
C=CCN(C[C@H]1CCC2=Cc3c(cnn3-c3ccc(F)cc3)C[C@@]21C)S(=O)(=O)c1ccccc1F [Example 3]: 407

----------
Listing: Emax of selected compounds
Target: human GR (Homo sapiens)
Assay: Transrepression Assay (GITAR), TNFα-β-lactamase reporter in U937 cells
Type: cell-based
Parameters: U937 cells contain an endogenous glucocorticoid receptor (GR); endogenous in cells; host or cells: U937 cells stably transfected with the TNF-alpha promoter/beta-lactamase reporter
Conditions: U-937, U937 cells; maximum activity; read-out: Transrepression U937 Cells GITAR Emax
quantity_kind: Emax

COC(=O)c1ccccc1CS(=O)(=O)N(C[C@H]1CCC2=Cc3c(cnn3-c3ccc(F)cc3)C[C@@]21C)C[C@@H](C)O: 77.7%
C[C@]12Cc3cnn(-c4ccc(F)cc4)c3C=C1CC[C@@H]2CN(CC1CC1)S(=O)(=O)c1ccc(F)c(Cl)c1: 59%
C[C@]12Cc3cnn(-c4ccc(F)cc4)c3C=C1CC[C@@H]2CN(Cc1ccccc1F)S(=O)(=O)c1cccc(C(N)=O)c1: 27.5%
CC(C1CCC2=Cc3c(cnn3-c3ccc(F)cc3)C[C@@]21C)N(CC1CC1)S(=O)(=O)CC(F)(F)F (some centres unmarked): 91.1%
Cn1nc(C(F)(F)F)cc1-c1ccc(S(=O)(=O)N(CC#N)C[C@H]2CCC3=Cc4c(cnn4-c4ccc(F)cc4)C[C@@]32C)s1: 39.5%
